biological target: human vWF A1 domain (SEQ ID NO 5) (Homo sapiens, UniProt P04275, T1381A); assay: dot blot KD determination, human vWF A1 domain; settings: read-out: human A1 KD; rRfY aptamers; 8 point titration of human vWF A1 domain
Sequence (P04275 with tags, fused parts or gaps T1381A): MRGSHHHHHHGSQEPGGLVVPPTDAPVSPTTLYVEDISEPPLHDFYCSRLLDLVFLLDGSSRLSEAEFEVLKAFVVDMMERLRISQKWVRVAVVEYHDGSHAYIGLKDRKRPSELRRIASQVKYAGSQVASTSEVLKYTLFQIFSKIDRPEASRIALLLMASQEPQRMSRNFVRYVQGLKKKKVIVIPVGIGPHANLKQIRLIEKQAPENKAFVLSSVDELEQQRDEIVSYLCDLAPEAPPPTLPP
pKd: −log10 of the molar value. Oligonucleotides are written 5' to 3', each unit as a sugar letter and its base; * is a phosphorothioate linkage, no mark a phosphodiester; rarer units and linkages stand in square brackets, end groups in braces. Plain capitals give the bases only. r = 2'-OH (RNA); f = 2'-fluoro
Reported pKd values are given for each entry in this list.
READOUT NAME: pKd

{"MOLECULE": "AMX201.H1: rRfY aptamer clone (nucleic acid) rGrGrArGfCrGfCrAfCfUfCrArGfCfCrAfCfUfUfUrAfCrGrGfUrGrArArArGfUfCfUfCfUfCrGrGrGrGfUfUfCfCrGrArGfUfUrAfCrGrGfUrGfCrGfUfUfUfCrGrAfCfCfUfCfUfCfUrGfCfUrArGfC", "REPORTED MEASUREMENT": 6.72}
{"MOLECULE": "AMX198.C6: rRfY aptamer clone (nucleic acid) rGrGrArGfCrGfCrAfCfUfCrArGfCfCrAfCrGrGfUrGrGfUfCrArGfUfCrArGfUrGrAfUrAfUrGrAfUfUrArArGfUfUfCrArGfCfUrGfUrGrGfCfUrGfUfUfUfCrGrAfCfCfUfCfUfCfUrGfCfUrArGfC", "REPORTED MEASUREMENT": 6.60}
{"MOLECULE": "AMX198.E5: rRfY aptamer clone (nucleic acid) rGrGrArGfCrGfCrAfCfUfCrArGfCfCrAfCfUfUfCrGrAfCfUfUfUfCrAfUrGfUfCfUrGrArArGfUfCfCfCfUrGfCrArGfUrGfCrGrArGrArGrAfCrGfUfUfUfCrGrAfCfCfUfCfUfCfUrGfCfUrArGfC", "REPORTED MEASUREMENT": 6.76}
